meta.source: patent US20070280972A1

Assay: Estimated therapeutically sufficient flux (steady state flux of marketed products, in vitro)
Settings: steady state flux of marketed product through hairless mouse or human epidermal membrane, method of Example 1; estimate
observed_property: Estimated Therapeutically sufficient flux (μg/cm^2/h)
State just the number; it will be interpreted in μg/cm^2/h.

Would you kindly share the measured Estimated Therapeutically sufficient flux for `Nc1nc2c(ncn2COCCO)c(=O)[nH]1` ? 3

For the compound `O=C(O)Cc1ccccc1Nc1c(Cl)cccc1Cl` , what Estimated Therapeutically sufficient flux is on record? 1

Data request, read-out Estimated Therapeutically sufficient flux, for CC(C(=O)O)c1cccc(C(=O)c2ccccc2)c1 (stereo not shown) 16

Form field: reported Estimated Therapeutically sufficient flux of `C[C@H]1C[C@H]2[C@@H]3CCC4=CC(=O)C=C[C@]4(C)[C@@]3(F)[C@@H](O)C[C@]2(C)[C@@]1(O)C(=O)CCl` 0.05
